molecular target: human GLP-1R (Homo sapiens, UniProt P43220, G168S); test: CHO GLP-1R Clone H6—Assay 1: HTRF cAMP cell-based functional agonist assay (high GLP-1R density); settings: read-out: Assay 1 Emax (%), CHO GLP-1R Clone H6; relative to saturating concentration of full agonist GLP-1 (1 μM); arithmetic mean
Sequence (P43220 24-463 G168S limits assumed): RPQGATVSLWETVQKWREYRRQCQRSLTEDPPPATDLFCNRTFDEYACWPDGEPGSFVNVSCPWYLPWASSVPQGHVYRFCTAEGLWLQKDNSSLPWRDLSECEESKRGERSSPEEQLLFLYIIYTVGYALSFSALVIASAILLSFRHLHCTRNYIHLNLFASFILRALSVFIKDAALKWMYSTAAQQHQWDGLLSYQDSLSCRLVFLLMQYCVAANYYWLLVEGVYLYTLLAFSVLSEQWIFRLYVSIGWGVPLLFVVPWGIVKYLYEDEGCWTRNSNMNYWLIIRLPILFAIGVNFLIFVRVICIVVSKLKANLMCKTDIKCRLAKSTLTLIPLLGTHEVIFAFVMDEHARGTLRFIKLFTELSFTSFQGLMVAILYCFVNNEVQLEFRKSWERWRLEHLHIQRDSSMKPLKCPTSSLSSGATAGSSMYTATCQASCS
recorded endpoint: Emax (%)

COCC1(Cn2c(CN3CCC(c4cccc(OCc5ccc(Cl)cc5F)n4)CC3)nc3ccc(C(=O)O)cc32)CCC1 [Example 11A-74] | 72
O=C(O)c1ccc2nc(CN3CCN(c4cccc(OCc5ccc(Cl)cc5F)n4)CC3)n(C[C@@H]3CCO3)c2n1 [Example 10A-74] | 94
COC[C@@H](C)n1c(CN2CCC(c3cccc(OCc4ccc(Cl)cc4F)n3)CC2)nc2ccc(C(=O)O)cc21 [Example 11A-46] | 66
Cn1c(CN2CCC(c3cccc(OCc4ccc(Cl)cc4F)n3)CC2)nc2ncc(C(=O)O)cc21 | 84
Cc1n[nH]c(Cn2c(CN3CCC(c4cccc(OCc5ccc(Cl)cc5F)n4)CC3)nc3ccc(C(=O)O)cc32)n1 [Example 11A-59] | 97
N#Cc1ccc(COc2cccc(C3CCN(Cc4nc5ccc(C(=O)O)cc5n4Cc4ncco4)CC3)n2)c(F)c1 | 84
CN(C)CCn1c(CN2CCC(c3cccc(OCc4ccc(Cl)cc4F)n3)CC2)nc2ccc(C(=O)O)cc21 [Example 10A-11] | 69
COCCn1c(CN2CCC(c3cccc(OCc4ccc(Cl)cc4F)n3)CC2)nc2cnc(C(=O)O)cc21 | 72
C[C@H]1CN(c2cccc(OCc3ccc(Cl)cc3F)n2)CCN1Cc1nc2ccc(C(=O)O)cc2n1Cc1cnco1 [Example 10A-16] | 67
O=C(O)c1ccc2nc(CN3CCC(c4cccc(OCc5ccc(Cl)cc5F)n4)CC3)n([C@H]3CCOC3)c2c1 [Example 10A-71] | 62
COCCn1c(CN2CC[C@@H](c3cccc(OCc4ccc(Cl)cc4F)n3)[C@@H](C)C2)nc2ccc(C(=O)O)cc21 (racemic) | 65
C[C@H]1CN(c2cccc(OCc3ccc(C#N)cc3F)n2)CCN1Cc1nc2ccc(C(=O)O)cc2n1C[C@H]1CCOC1 [Example 10A-59] | 71
O=C(O)c1ccc2nc(CN3CCC(c4cccc(OCc5ccc(Cl)cc5F)n4)CC3)n(Cc3n[nH]c(C4CC4)n3)c2c1 [Example 11A-64] | 88
Cn1c(CN2CCC(c3cccc(OCc4ccc(Cl)cc4F)n3)CC2)nc2cnc(C(=O)O)cc21 | 74

====

molecular target: human GLP-1R (Homo sapiens, UniProt P43220, G168S); experiment: CHO GLP-1R Clone H6—Assay 1: HTRF cAMP cell-based functional agonist assay (high GLP-1R density); settings: read-out: Assay 1 EC50; CHO GLP-1R Clone H6, cAMP HTRF; geometric mean
recorded endpoint: EC50 (µM)

Look over these answered cases.
O=C(O)c1ccc2nc(CN3CCC(c4cccc(OCc5ccc(Cl)cc5F)n4)CC3)n(Cc3cocn3)c2c1 [Example 10A-41] | 0.012
CCn1cnnc1Cn1c(CN2CCC(c3cccc(OCc4ccc(Cl)cc4F)n3)CC2)nc2ccc(C(=O)O)cc21 [Example 10A-07] | 0.0028

(a) Cc1n[nH]c(Cn2c(CN3CCC(c4cccc(OCc5ccc(Cl)cc5F)n4)CC3)nc3ccc(C(=O)O)cc32)n1 [Example 11A-59]
(b) O=C(O)c1ccc2nc(CN3CCC(c4cccc(OCc5ccc(Cl)cc5F)n4)CC3)n(Cc3c[nH]nn3)c2c1 [Example 11A-23]
(c) N#Cc1ccc(COc2cccc(C3CCN(Cc4nc5ccc(C(=O)O)nc5n4C[C@@H]4CCO4)CC3)n2)c(F)c1
(d) N#Cc1ccc(COc2cccc(N3CCN(Cc4nc5ccc(C(=O)O)cc5n4Cc4ncco4)CC3)n2)c(F)c1 [Example 10A-34]
Q: Sort by EC50, descending. Please list the labels according to the requested order.
A: a, b, d, c

(I) C[C@H]1CN(c2cccc(OCc3ccc(Cl)cc3F)n2)CCN1Cc1nc2ccc(C(=O)O)cc2n1Cc1cnnn1C [Example 10A-22]
(II) Cc1cc(Cn2c(CN3CCC(c4cccc(OCc5ccc(Cl)cc5F)n4)CC3)nc3ccc(C(=O)O)cc32)[nH]n1 [Example 11A-58]
Q: Could you tell me which of I and II has the lower EC50 reading? Write down the label of the entry you select.
A: I

(A) O=C(O)c1ccc2nc(CN3CCC(c4cccc(OCc5ccc(Cl)cc5F)n4)CC3)n(CCn3cccn3)c2c1 [Example 11A-28]
(B) CCCn1cnnc1Cn1c(CN2CCC(c3cccc(OCc4ccc(Cl)cc4F)n3)CC2)nc2ccc(C(=O)O)cc21
Q: Which is greater in EC50, the first item A or the second item B ? Answer with the label corresponding to your selection.
A: A
